Where do the numbers come from? From patent US8664289B2.

# protocol: Heat resistance of exposed coating film of coloring alkali-developable photosensitive composition
# Format: physicochemical
# assay setup: coating film of composition containing the compound, on glass

{"compound": "CC(COC(=O)/C(C#N)=C/c1ccc(N(Cc2ccccc2)Cc2ccccc2)cc1)(COC(=O)/C(C#N)=C/c1ccc(N(Cc2ccccc2)Cc2ccccc2)cc1)COC(=O)/C(C#N)=C/c1ccc(N(Cc2ccccc2)Cc2ccccc2)cc1", "result unit": "nm", "λmax": 426}
{"compound": "CCN(CC)c1ccc(/C=C(\\C#N)C(=O)OCC(C)(COC(=O)/C(C#N)=C/c2ccc(N(C)CCO)cc2)COC(=O)/C(C#N)=C/c2ccc(N(C)CCO)cc2)cc1", "result unit": "nm", "λmax": 433}
{"compound": "N#C/C(=C\\c1ccc(N2CCOCC2)cc1)C(=O)OCCCCCCCOC(=O)/C(C#N)=C/c1ccc(N2CCOCC2)cc1", "result unit": "nm", "λmax": 408}
{"compound": "CCN(CC)c1ccc(/C=C(\\C#N)C(=O)OCC(C)OC(=O)/C(C#N)=C/c2ccc(N(CC)CC)cc2)cc1 (centres unmarked)", "result unit": "nm", "λmax": 430}
{"compound": "CCN(CC)c1ccc(/C=C(\\C#N)C(=O)OCC(COC(=O)/C(C#N)=C/c2ccc(N(CC)CC)cc2)(COC(=O)/C(C#N)=C/c2ccc(N(CC)CC)cc2)COC(=O)/C(C#N)=C/c2ccc(N(CC)CC)cc2)cc1", "result unit": "nm", "λmax": 438}
{"compound": "CCN(CC)c1ccc(/C=C(\\C#N)C(=O)OCCOC(=O)/C(C#N)=C/c2ccc(N(CC)CC)cc2)cc1", "result unit": "nm", "λmax": 418}
{"compound": "CCN(CC)c1ccc(/C=C(\\C#N)C(=O)Oc2ccc(C(C)(C)c3ccc(OC(=O)/C(C#N)=C/c4ccc(N(CC)CC)cc4)cc3)cc2)cc1", "result unit": "nm", "λmax": 442}
{"compound": "CCN(CC)c1ccc(/C=C(\\C#N)C(=O)OCC(C)(COC(=O)/C(C#N)=C/c2ccc(N(CC)CC)cc2)COC(=O)/C(C#N)=C/c2ccc(N(c3ccccc3)c3ccccc3)cc2)cc1 (centres unmarked)", "result unit": "nm", "λmax": 433}
{"compound": "C=C(C)C(=O)OCCN(C)c1ccc(/C=C(\\C#N)C(=O)OCCCCCCOC(=O)/C(C#N)=C/c2ccc(N(C)CCOC(=O)C(=C)C)cc2)cc1", "result unit": "nm", "λmax": 419}
{"compound": "CN(CCO)c1ccc(/C=C(\\C#N)C(=O)OCCCCCCOC(=O)/C(C#N)=C/c2ccc(N(C)CCO)cc2)cc1", "result unit": "nm", "λmax": 431}
{"compound": "CCN(CC)c1ccc(/C=C(\\C#N)C(=O)OCCCOC(=O)/C(C#N)=C/c2ccc(N(CC)CC)cc2)cc1", "result unit": "nm", "λmax": 433}

----------
Listed here: items and their measured λmax.
# protocol: Evaluation of absorption wavelength property in CHCl3 solution
# Format: physicochemical

{"compound": "CCN(CCC#N)c1ccc(/C=C(\\C#N)C(=O)OCCCCCCOC(=O)/C(C#N)=C/c2ccc(N(CC)CCC#N)cc2)cc1 [Compound No. 58]", "λmax (nm)": 420}
{"compound": "N#C/C(=C\\c1ccc(N(c2ccccc2)c2ccccc2)cc1)C(=O)OCCCCCCCOC(=O)/C(C#N)=C/c1ccc(N(c2ccccc2)c2ccccc2)cc1 [Compound No. 65]", "λmax (nm)": 435}
{"compound": "N#C/C(=C\\c1ccc(N2CCOCC2)cc1)C(=O)OCCCCCCCOC(=O)/C(C#N)=C/c1ccc(N2CCOCC2)cc1 [Compound No. 60]", "λmax (nm)": 405}
{"compound": "CCN(CC)c1ccc(/C=C(\\C#N)C(=O)NCCCCCCNC(=O)/C(C#N)=C/c2ccc(N(CC)CC)cc2)cc1 [Compound No. 7]", "λmax (nm)": 432}
{"compound": "CCN(CC)c1ccc(/C=C(\\C#N)C(=O)OCC(C)OC(=O)/C(C#N)=C/c2ccc(N(CC)CC)cc2)cc1 (stereo not drawn) [Compound No. 2]", "λmax (nm)": 434}
{"compound": "CCCCN(CCCC)c1ccc(/C=C(\\C#N)C(=O)Oc2ccc(C(c3ccc(OC(=O)/C(C#N)=C/c4ccc(N(CCCC)CCCC)cc4)cc3)(C(F)(F)F)C(F)(F)F)cc2)cc1 [Compound No. 69]", "λmax (nm)": 448}

----------
# protocol: Evaluation of absorption wavelength property in CHCl3 solution
# Assay type: physicochemical
Listed here: items and their measured λmax.

{"molecule": "CC(COC(=O)/C(C#N)=C/c1ccc(N(C)C)cc1)OC(=O)/C(C#N)=C/c1ccc(N(C)C)cc1 (stereo not drawn) [Compound No. 55]", "λmax, nm": 427}
{"molecule": "CCN(CC)c1ccc(/C=C(\\C#N)C(=O)OCC(COC(=O)/C(C#N)=C/c2ccc(N(CC)CC)cc2)(COC(=O)/C(C#N)=C/c2ccc(N(CC)CC)cc2)COC(=O)/C(C#N)=C/c2ccc(N(CC)CC)cc2)cc1 [Compound No. 16]", "λmax, nm": 439}
{"molecule": "CCN(CC)c1ccc(/C=C(\\C#N)C(=O)OCC(C)(COC(=O)/C(C#N)=C/c2ccc(N3CCOCC3)cc2)COC(=O)/C(C#N)=C/c2ccc(N3CCOCC3)cc2)cc1 [Compound No. 97]", "λmax, nm": 417}
{"molecule": "CCN(CC)c1ccc(/C=C(\\C#N)C(=O)OCCCCCCCOC(=O)/C(C#N)=C/c2ccc(N(CC)CC)cc2)cc1 [Compound No. 5]", "λmax, nm": 430}
{"molecule": "CCOC(=O)/C(C#N)=C/c1ccc(N(CC)CC)cc1 [Comparative Compound No. 1, reference compound]", "λmax, nm": 430}
{"molecule": "CCN(CC)c1ccc(/C=C(\\C#N)C(=O)OCC(C)(COC(=O)/C(C#N)=C/c2ccc(N(C)CCO)cc2)COC(=O)/C(C#N)=C/c2ccc(N(CC)CC)cc2)cc1 (stereo not drawn) [Compound No. 100]", "λmax, nm": 434}

----------
# protocol: Evaluation of absorption wavelength property in CHCl3 solution
# Format: physicochemical
# Parameters: unit not given here
# assay setup: molar absorption coefficient
# Excerpt: The absorption wavelength properties of Compounds Nos. 1 to 7, 16, 26, 43, 52 to 62, 65, 66, 69, 70 and 94 to 102 and Comparative Compounds Nos. 1 and 2 obtained above were each evaluated in a CHCl3 solution. The results are shown in [Table 5].
ε under 90000 gets MET, anything at or over 90000 gets NOT MET.

{"compound": "CCN(CC)c1ccc(/C=C(\\C#N)C(=O)OCC(C)(COC(=O)/C(C#N)=C/c2ccc(N3CCOCC3)cc2)COC(=O)/C(C#N)=C/c2ccc(N3CCOCC3)cc2)cc1", "group label": "NOT MET"}
{"compound": "N#C/C(=C\\c1ccc(N(c2ccccc2)c2ccccc2)cc1)C(=O)OCCCCCCCOC(=O)/C(C#N)=C/c1ccc(N(c2ccccc2)c2ccccc2)cc1", "group label": "MET"}
{"compound": "CCN(CC)c1ccc(/C=C(\\C#N)C(=O)OCC(C)(COC(=O)/C(C#N)=C/c2ccc(N(C)CCO)cc2)COC(=O)/C(C#N)=C/c2ccc(N(CC)CC)cc2)cc1 (stereo not drawn)", "group label": "NOT MET"}
{"compound": "N#C/C(=C\\c1ccc(N2CCOCC2)cc1)C(=O)OCCCCCCCOC(=O)/C(C#N)=C/c1ccc(N2CCOCC2)cc1", "group label": "MET"}
{"compound": "CCN(CC)c1ccc(/C=C(\\C#N)C(=O)OCC(C)(COC(=O)/C(C#N)=C/c2ccc(N(CC)CC)cc2)COC(=O)/C(C#N)=C/c2ccc(N(c3ccccc3)c3ccccc3)cc2)cc1 (stereo not drawn)", "group label": "NOT MET"}

----------
# protocol: Evaluation of absorption wavelength property in CHCl3 solution
# Assay type: physicochemical
Listed here: items and their measured λmax.

{"compound": "CN(CCO)c1ccc(/C=C(\\C#N)C(=O)OCC(C)(COC(=O)/C(C#N)=C/c2ccc(N(C)CCO)cc2)COC(=O)/C(C#N)=C/c2ccc(N(C)CCO)cc2)cc1", "λmax (nm)": 428}
{"compound": "CCN(CC)c1ccc(/C=C(\\C#N)C(=O)OCC(CC)(COC(=O)/C(C#N)=C/c2ccc(N(CC)CC)cc2)COC(=O)/C(C#N)=C/c2ccc(N(CC)CC)cc2)cc1", "λmax (nm)": 437}
{"compound": "CC(COC(=O)/C(C#N)=C/c1ccc(N2CCOCC2)cc1)OC(=O)/C(C#N)=C/c1ccc(N2CCOCC2)cc1 (centres unmarked)", "λmax (nm)": 408}
{"compound": "CCOCCOC(=O)C(C#N)=C(C)c1ccc(N(CC)CC)cc1 [Comparative Compound No. 2, reference compound]", "λmax (nm)": 432}
{"compound": "CCN(CC)c1ccc(/C=C(\\C#N)C(=O)OCC(C)(COC(=O)/C(C#N)=C/c2ccc(N(C)CCO)cc2)COC(=O)/C(C#N)=C/c2ccc(N(C)CCO)cc2)cc1", "λmax (nm)": 431}
